Tested on: Aspergillus fumigatus
Assay: Antifungal activity against Aspergillus fumigatus by micro-broth dilution method
Assay type: functional
measured_metric: MIC

1. OC(CN(Cc1cn(Cc2c(Cl)cccc2Cl)nn1)C1CC1)(Cn1cncn1)c1ccc(F)cc1F (stereo not drawn) ... > 64 µg/mL
2. OC(CN(Cc1cn(C2CCCCC2)nn1)C1CC1)(Cn1cncn1)c1ccc(F)cc1F (stereo not drawn) ... 32 µg/mL
3. OC(CN(Cc1cn(Cc2ccccc2Br)nn1)C1CC1)(Cn1cncn1)c1ccc(F)cc1F (stereo not drawn) ... > 64 µg/mL
4. CC(=O)N1CCN(c2ccc(OCC3COC(Cn4ccnc4)(c4ccc(Cl)cc4Cl)O3)cc2)CC1 (stereo not drawn) ... 0.125 µg/mL
5. CC(C)N(Cc1cn(Cc2ccc([N+](=O)[O-])cc2)nn1)CC(O)(Cn1cncn1)c1ccc(F)cc1F (stereo not drawn) ... > 64 µg/mL
6. Cc1ccc(Cn2cc(CN(CC(O)(Cn3cncn3)c3ccc(F)cc3F)C3CC3)nn2)cc1 (stereo not drawn) ... 64 µg/mL
7. Cc1ccccc1Cn1cc(CN(CC(O)(Cn2cncn2)c2ccc(F)cc2F)C2CC2)nn1 (stereo not drawn) ... > 64 µg/mL
8. OC(CN(Cc1cn(Cc2ccc(Br)cc2)nn1)C1CC1)(Cn1cncn1)c1ccc(F)cc1F (stereo not drawn) ... > 64 µg/mL
9. CC(C)N(Cc1cn(Cc2cccc([N+](=O)[O-])c2)nn1)CC(O)(Cn1cncn1)c1ccc(F)cc1F (stereo not drawn) ... > 64 µg/mL
10. N#Cc1ccccc1Cn1cc(CN(CC(O)(Cn2cncn2)c2ccc(F)cc2F)C2CC2)nn1 (stereo not drawn) ... > 64 µg/mL

Prompt: Reported MIC for CCc1ccc(Cn2cc(CN(CC(O)(Cn3cncn3)c3ccc(F)cc3F)C3CC3)nn2)cc1 (stereo not drawn) : what is it?
Completion: > 64 µg/mL
